meta.source: patent US20250368606A1

ASSAY_PROTOCOL: Visual (aqueous) solubility estimation
Format: physicochemical
RUN_CONDITIONS: water, thermodynamic from solid, visual observation
QUANTITY_MEASURED: solubility

Provide one value: measured solubility of CNC(=O)c1cc2c(Oc3ccc(NC(=O)C4(C(=O)Nc5ccc(F)cc5)CC4)cc3)ccnc2cc1OC [Amorphous Compound 1]
< 250 µg/mL
